Test: Pharmacokinetic test in mice
Format: in vivo, C57 mice
Settings: male, C57, mouse, iv, plasma, i.v. 2.5 mg/kg
Catalogue of compounds with associated clearance
Quick reminder: number only, in mL/min/kg, skip the unit.

Worked cases, clearance given:
- COMPOUND: "C[C@@H](Nc1cc(N2CC(C3CN(C4CC(C)(C(=O)O)C4)CCO3)C2)ccc1Cl)c1ccc(Cl)cc1Cl (single isomer, unassigned) [Compound 83 isomer 1]"
  clearance (mL/min/kg): 5.69
- COMPOUND: "Cc1nc(N2CCC(C3CN(C4CC(C)(C(=O)O)C4)CCO3)CC2)nc(NC(C)c2ccc(Cl)cc2Cl)c1Cl (single isomer, unassigned) [Compound 73 isomer 3]"
  clearance (mL/min/kg): 5.62
- COMPOUND: "Cc1nc(N2CC(F)(C3CN(C4CC(C)(C(=O)O)C4)CCO3)C2)nc(N[C@H](C)c2ccc(Cl)cc2Cl)c1Cl (single isomer, unassigned) [Compound 64 isomer 3]"
  clearance (mL/min/kg): 9.26

Consider the additional compound presented here.
Q. Provide measured clearance value, entry: Cc1nc(N2CCC(C3CN(CCC(=O)O)CCO3)CC2)nc(NC(C)c2ccc(Cl)cc2Cl)c1Cl (single isomer, unassigned) [Compound 76 isomer 2]
A. 23.1

----------
Experiment: Pharmacokinetic test in mice
Format: in vivo, C57 mice
Details: male, C57, mouse, po, plasma, i.g. 10 mg/kg
Method: 1.1 Experimental animals: Male C57 mice, 20-25 g, 6 mice/compound. Purchased from Chengdu Ddossy Experimental Animals Co., Ltd. 1.2 Experimental design: On the day of the experiment, 24 C57 mice were randomly grouped according to their body weight. The animals were fasted with water available for 12 to 14 h one day before the administration and were fed 4 h after the administration. […]
QUANTITY: AUC(0-t) (ng·h/mL)
Quick reminder: number only, in ng·h/mL, skip the unit.

Q. Provide measured AUC(0-t) value, entry: Cc1nc(N2CC(F)(C3CN(C4CC(C)(C(=O)O)C4)CCO3)C2)nc(N[C@H](C)c2ccc(Cl)cc2Cl)c1Cl (single isomer, unassigned) [Compound 64 isomer 3]
A. 21200

Q. Provide measured AUC(0-t) value, entry: C[C@@H](Nc1cc(N2CC(C3CN(C4CC(C)(C(=O)O)C4)CCO3)C2)ccc1Cl)c1ccc(Cl)cc1Cl (single isomer, unassigned) [Compound 83 isomer 1]
A. 26600

Q. Provide measured AUC(0-t) value, entry: Cc1nc(N2CCC(C3CN(C4CC(C)(C(=O)O)C4)CCO3)CC2)nc(NC(C)c2ccc(Cl)cc2Cl)c1Cl (single isomer, unassigned) [Compound 73 isomer 3]
A. 26800

Q. Provide measured AUC(0-t) value, entry: Cc1nc(N2CCC(C3CN(CCC(=O)O)CCO3)CC2)nc(NC(C)c2ccc(Cl)cc2Cl)c1Cl (single isomer, unassigned) [Compound 76 isomer 2]
A. 8840

----------
Experiment: Pharmacokinetic test in monkeys
Type: in vivo, cynomolgus monkeys
Conditions: male, cynomolgus monkey, iv, plasma, i.v. 1 mg/kg, read-out: Vdss
Catalogue of compounds with associated Vd
Quick reminder: number only, in L/kg, skip the unit.

- COMPOUND: "C[C@@H](Nc1cc(N2CC(C3CN(C4CC(C)(C(=O)O)C4)CCO3)C2)ccc1Cl)c1ccc(Cl)cc1Cl (single isomer, unassigned) [Compound 83 isomer 1]"
  READOUT UNITS: "L/kg"
  Vd: 0.754

Consider the additional compound presented here.
Q. Provide measured Vd value, entry: Cc1nc(N2CC(C3CN(C4CC(C)(C(=O)O)C4)CCO3)C2)nc(NC(C)c2ccc(Cl)cc2Cl)c1Cl (single isomer, unassigned) [Compound 9 isomer 3]
A. 0.995
